B1: TPR t1 (parent)
chain: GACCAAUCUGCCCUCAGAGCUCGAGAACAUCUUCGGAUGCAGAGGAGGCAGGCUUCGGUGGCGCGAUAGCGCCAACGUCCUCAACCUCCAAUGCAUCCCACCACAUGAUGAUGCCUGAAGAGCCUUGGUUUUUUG

- Variants of: B1
- protocolText: polymerase ribozyme fitness, log enrichment relative to wild type (log ratio); higher = more active; in vitro selection for triplet polymerase activity
quantityName: polymerase ribozyme fitness (log ratio)
Enter the number alone.

Study these solved cases before continuing.
Task: Name the recorded polymerase ribozyme fitness (log ratio) for GACCAAUCUGCCCUUAGAGCUCGAGAACAUCUUCGGAUGCAGUGCAGGCAGGCUUCGGUGGCGCGAUAGCGCCAACGUCCUCAACCUCCAAUGGAUCCCACCACAUGAUGAUGCCUGAAGAGCCUUGGUUUUUUG [C15U A43U G45C C94G] .
Result: -4.68

Task: Requested read-out: polymerase ribozyme fitness (log ratio). Entry: GAUCAAUCUGCCCUCAGAGCUCGAGAACAUCUUCGGAUACAGAGGAGGCAGGCGUCGGUGGCGCGAUAGCGCCAACGUCCUCAACCUCCAAUGCAUCCCACCACAUGAUGAUGCCUGAACAGCCUUGGUUUUUUG [C3U G39A U54G G120C]
Result: 0.423

---
Task: Which value of polymerase ribozyme fitness (log ratio) has been reported for GACCAAUUUGCCCUCAGAGCUCGAGAACAUCUUCGGAUGCAGAGGAGGCAGGCUUCGGUGGCGCGAUAGCACCAACGUCCUCAACCUCCAAUGCAUCCCACCACAUGAUGAUGCCUGAAGAGCCUUGGUUUUUUG [C8U G71A] in the records?
Result: -0.229

Task: Dear colleague, I am looking for the recorded polymerase ribozyme fitness (log ratio) of the following variant: GACCAAUCUGUCCUCAGAGCUCGAGAACAUCUUCGGAUGCAGAGGAGGCAGGCUUCGGUGGCUCGAUAGCGCCAACGCCCUCAACCUCCAAUGCAUCCCAACACAUGAUGAUGCCUGAAGAGCCUUGGUUUUUUG [C11U G63U U78C C101A]
Result: -4.53

Task: Quick one: polymerase ribozyme fitness (log ratio) of GACCAAUCUGCCCUCAGAGCUCGAGAACAUCUUCGGAUGCAGAGGAGGCAGGCUUCGGUGGCGCGAUAGCGCCAACGUCCUCAACCUCCAAUGCAUCGCACCACAUGAUGAUGCCUGAAGAGCCUUGGUUUUUUG [C98G] ?
Result: -5.78
